Assay: Inhibition of Rolipram binding to PDE4
pKi: −log10 of the molar value.
measure: pKi

Sample records with pKi:
| compound_structure | pKi |
| --- | --- |
| COc1ccc(C(=O)Nc2c(Cl)cncc2Cl)c2[nH]c(C(C)C)nc12 | 7.62 |
| COCc1nc2c(OC)ccc(C(=O)Nc3c(Cl)cncc3Cl)c2[nH]1 | 7.60 |
| COc1ccc(C(=O)Nc2c(Cl)cncc2Cl)c2[nH]c(CCc3ccccc3)nc12 | 7.25 |
| COc1ccc(C(=O)Nc2c(Cl)cncc2Cl)c2[nH]c(C)nc12 | 6.15 |

1. COc1ccc(C(=O)Nc2c(Cl)cncc2Cl)c2nc(C3CCCC3)n(C)c12
2. COc1ccc(C(=O)Nc2c(Cl)cncc2Cl)c2[nH]c(C3CC3)nc12
3. COc1ccc(C(=O)Nc2c(Cl)cncc2Cl)c2c1nc(C1CCCC1)n2C
4. COc1ccc(C(=O)Nc2c(Cl)cncc2Cl)c2[nH]c(C3CCCC3)nc12
input: Ordering criterion: pKi; begin with the maximum. Provide your answer as the labels ordered per the instruction.
output: 2, 3, 4, 1
(2: 9.00, 3: 6.47, 4: 6.27, 1: 5.00)

A. COCc1nc2c(OC)ccc(C(=O)Nc3c(Cl)c[n+]([O-])cc3Cl)c2[nH]1
B. COc1ccc(C(=O)Nc2c(Cl)c[n+]([O-])cc2Cl)c2[nH]c(C(C)C)nc12
input: Hi! Which is lower in terms of pKi, the first one A or the second one B ? Lab log: write the label of the selected item as the result.
output: A
(A: 7.35, B: 7.62)
